Source: PubChem BioAssay AID210

- System: CD2F1 mice, ip Colon 26 adenocarcinoma, median survival T/C
- METHOD SUMMARY: NCI In Vivo Anticancer Drug Screen. Data for tumor model Colon 26 Adenocarcinoma (intraperitoneal) in CD2F1 (CDF1) mice
- CONDITION CONTEXT: endpoint: median survival time; dose: 6.25 mg/kg/injection; schedule: Q04DX003 (ip); vehicle: saline with Tween-80; higher = longer survival
Toxic doses and inconclusive results are not listed.
Measured T/C values are reported for all entries that follow.
REPORTED PROPERTY: T/C

- COMPOUND: "CN1C(=O)CC2(CCN(CCCC(=O)c3ccc(F)cc3)CC2)C1=O"
  TEST RESULT: "98 % of control"
- COMPOUND: "COC(=O)C(F)C(Br)C(=O)OC (stereo not drawn)"
  TEST RESULT: "102 % of control"
- COMPOUND: "C=C/C(C)=C/[C@H](C)C(=O)C[C@H](O)CC1CC(=O)NC(=O)C1"
  TEST RESULT: "97 % of control"
- COMPOUND: "C=CC(=O)N1CN(C(=O)C=C)CN(C(=O)C=C)C1"
  TEST RESULT: "110 % of control"
- COMPOUND: "CC[N+](CC)(CC)CC"
  TEST RESULT: "111 % of control"
- COMPOUND: "CC(=O)O[C@@H]1[C@@H](O)C2=C3[C@]4(C)[C@@H]1C(C)(C)C(=O)C[C@@H]4[C@]3(O)[C@H](OC(C)=O)[C@@]1(C[C@@H]1C)C2=O"
  TEST RESULT: "106 % of control"
- COMPOUND: "CCC[P+](c1ccccc1)(c1ccccc1)c1ccccc1"
  TEST RESULT: "107 % of control"
- COMPOUND: "COc1cc(C)c2c(c1C=O)Oc1c(c(C)c(O)c3c1C(O)OC3=O)OC2=O (stereo not drawn)"
  TEST RESULT: "103 % of control"

----------
- System: CD2F1 mice, ip Colon 26 adenocarcinoma, median survival T/C
- METHOD SUMMARY: NCI In Vivo Anticancer Drug Screen. Data for tumor model Colon 26 Adenocarcinoma (intraperitoneal) in CD2F1 (CDF1) mice
- CONDITION CONTEXT: endpoint: median survival time; dose: 40.0 mg/kg/injection; schedule: Q04DX003 (ip); vehicle: saline
Inconclusive results and toxic doses are left out. Rule for the calls: active = survival T/C of 150% or more; inactive = T/C below 125% in these data.
Labels: active, inactive

- COMPOUND: "CCC1CN2C(=N1)c1ccccc1-c1cc(Cl)ccc12 (centres undefined)"
  ASSIGNED CATEGORY: "inactive"
- COMPOUND: "Nc1n[nH]c(N)n1"
  ASSIGNED CATEGORY: "inactive"
- COMPOUND: "O=c1[nH]cc(F)c(=O)[nH]1"
  ASSIGNED CATEGORY: "active"
- COMPOUND: "O=c1n(CC2CO2)c(=O)n(CC2CO2)c(=O)n1CC1CO1 (centres undefined)"
  ASSIGNED CATEGORY: "active"

----------
- Tested on: CD2F1 mice, ip Colon 26 adenocarcinoma, median survival T/C
- METHOD SUMMARY: NCI In Vivo Anticancer Drug Screen. Data for tumor model Colon 26 Adenocarcinoma (intraperitoneal) in CD2F1 (CDF1) mice
- CONDITION CONTEXT: endpoint: median survival time; dose: 12.5 mg/kg/injection; schedule: Q04DX002 (ip); vehicle: distilled water + Tween-80; higher = longer survival
Inconclusive results and toxic doses are left out.
T/C by entry:
REPORTED PROPERTY: T/C

- COMPOUND: "CC1(CO)C(O)CCC2(C)C1C(O)CC1CC3CC12CCC3(O)CO (centres undefined)"
  TEST RESULT: "120 % of control"
- COMPOUND: "CN1C(=O)NC(c2ccc(Cl)cc2)(c2ccc(Cl)cc2)C1=O"
  TEST RESULT: "106 % of control"
- COMPOUND: "C[C@@]1(CO)[C@@H](O)CC[C@@]2(C)[C@H]1CC[C@H]1C[C@@H]3CC12CC[C@]3(O)CO"
  TEST RESULT: "103 % of control"
- COMPOUND: "CC(=O)OCC1(C)C(O)CCC2(C)C1CCC1CC3CC12CCC3(O)CO (centres undefined)"
  TEST RESULT: "103 % of control"
